Target: UniProt Q99759
Sequence (whole entry): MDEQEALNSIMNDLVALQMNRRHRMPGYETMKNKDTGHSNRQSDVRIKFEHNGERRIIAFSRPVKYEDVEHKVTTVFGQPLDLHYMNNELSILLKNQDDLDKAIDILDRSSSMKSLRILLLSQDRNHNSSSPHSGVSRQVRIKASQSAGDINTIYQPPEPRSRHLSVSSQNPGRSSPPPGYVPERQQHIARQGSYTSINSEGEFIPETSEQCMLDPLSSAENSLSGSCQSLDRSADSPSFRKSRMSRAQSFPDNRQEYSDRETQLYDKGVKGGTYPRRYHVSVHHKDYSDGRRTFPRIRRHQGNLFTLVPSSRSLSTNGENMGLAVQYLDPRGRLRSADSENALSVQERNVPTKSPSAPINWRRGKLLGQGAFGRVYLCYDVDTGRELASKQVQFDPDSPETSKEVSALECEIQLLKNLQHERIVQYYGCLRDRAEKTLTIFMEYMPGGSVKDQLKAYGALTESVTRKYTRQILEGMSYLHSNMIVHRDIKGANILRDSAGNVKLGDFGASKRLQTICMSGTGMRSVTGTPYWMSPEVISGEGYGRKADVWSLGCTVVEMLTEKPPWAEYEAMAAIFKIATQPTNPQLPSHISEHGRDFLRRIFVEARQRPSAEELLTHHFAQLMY
Assay: pIC50, kinobeads binding competition
Conditions: cell material: Lysate mix
The compounds listed here are annotated with their pIC50.

compound | test.target | pIC50
O=C(NCCNC(=O)c1cc(Nc2cc(C3CC3)[nH]n2)nc(N2CCN(Cc3ccc(S(=O)(=O)F)cc3)CC2)n1)OC1CC/C=C/CCC1 (stereo unspecified) | UniProt Q99759 | < 4.52
Cc1cc(Nc2cc(C(=O)NCCNC(=O)OC3CC/C=C/CCC3)nc(N3CCN(Cc4ccc(S(=O)(=O)F)cc4)CC3)n2)n[nH]1 (stereo unspecified) | UniProt Q99759 | < 4.52
CCNC(=O)c1cc(Nc2cc(C3CC3)[nH]n2)nc(N2CCN(Cc3ccc(S(=O)(=O)F)cc3)CC2)n1 | UniProt Q99759 | 5.08
C#CCNC(=O)c1cc(Nc2cc(C3CC3)[nH]n2)nc(N2CCN(Cc3ccc(S(=O)(=O)F)cc3)CC2)n1 | UniProt Q99759 | 5.16
C#CCNC(=O)c1cc(Nc2cc(C)[nH]n2)nc(N2CCN(Cc3ccc(S(=O)(=O)F)cc3)CC2)n1 | UniProt Q99759 | < 4.52
CCNC(=O)c1cc(Nc2cc(C)[nH]n2)nc(N2CCN(Cc3ccc(S(=O)(=O)F)cc3)CC2)n1 | UniProt Q99759 | < 4.52

###

biological target: UniProt P45983; assay: pIC50, kinobeads binding competition; settings: cell material: Lysate mix
Sequence (P45983 whole entry): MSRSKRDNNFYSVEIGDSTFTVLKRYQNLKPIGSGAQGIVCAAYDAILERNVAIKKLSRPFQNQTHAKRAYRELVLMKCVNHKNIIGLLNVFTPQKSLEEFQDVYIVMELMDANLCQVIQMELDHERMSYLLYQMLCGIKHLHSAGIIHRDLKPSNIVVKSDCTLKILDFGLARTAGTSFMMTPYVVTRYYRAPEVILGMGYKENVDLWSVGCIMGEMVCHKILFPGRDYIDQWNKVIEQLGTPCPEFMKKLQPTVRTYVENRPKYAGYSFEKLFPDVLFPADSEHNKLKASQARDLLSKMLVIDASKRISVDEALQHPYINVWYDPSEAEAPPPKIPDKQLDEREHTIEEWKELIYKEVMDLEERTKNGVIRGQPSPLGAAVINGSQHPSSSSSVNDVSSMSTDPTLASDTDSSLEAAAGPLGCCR
endpoint.name: pIC50

compound | endpoint.name | endpoint.value
Cc1cc(Nc2cc(C(=O)NCCNC(=O)OC3CC/C=C/CCC3)nc(N3CCN(Cc4ccc(S(=O)(=O)F)cc4)CC3)n2)n[nH]1 (stereo unspecified) | pIC50 | < 4.52
O=C(NCCNC(=O)c1cc(Nc2cc(C3CC3)[nH]n2)nc(N2CCN(Cc3ccc(S(=O)(=O)F)cc3)CC2)n1)OC1CC/C=C/CCC1 (stereo unspecified) | pIC50 | < 4.52
CCNC(=O)c1cc(Nc2cc(C3CC3)[nH]n2)nc(N2CCN(Cc3ccc(S(=O)(=O)F)cc3)CC2)n1 | pIC50 | 4.65
C#CCNC(=O)c1cc(Nc2cc(C)[nH]n2)nc(N2CCN(Cc3ccc(S(=O)(=O)F)cc3)CC2)n1 | pIC50 | 4.6
CCNC(=O)c1cc(Nc2cc(C)[nH]n2)nc(N2CCN(Cc3ccc(S(=O)(=O)F)cc3)CC2)n1 | pIC50 | 4.64
C#CCNC(=O)c1cc(Nc2cc(C3CC3)[nH]n2)nc(N2CCN(Cc3ccc(S(=O)(=O)F)cc3)CC2)n1 | pIC50 | 4.72
